Tested on: P. aeruginosa
measurement description: Checkerboard assay (antibiotic + adjuvant combination MIC)
Format: cell-based, Pseudomonas aeruginosa
assay setup: PA 260-97103; compound at 8 μM
Below, each entry is listed with its recorded MIC of IPM in the presence of compound.
Numbers only; they are read as µg/mL.

The examples below pair each entry with its known result.
NC[C@H]1O[C@H](O[C@H]2[C@H](OCCCCc3cn(CCCCO[C@@H]4[C@@H](O)[C@H](N)C[C@H](N)[C@H]4O[C@H]4O[C@H](CN)[C@@H](O)C[C@H]4N)nn3)[C@@H](O)[C@H](N)C[C@@H]2N)[C@H](N)C[C@@H]1O [Compound 26, Nebramine Homodimer] = 16
Cl.Cl.Cl.Cl.Cl.Cl.NC[C@H]1O[C@H](O[C@H]2[C@H](OCCCCCCCCCCCCN3CCN(c4cc5c(cc4F)c(=O)c(C(=O)O)cn5C4CC4)CC3)[C@@H](O[C@H]3O[C@H](CO)[C@@H](O)[C@H](N)[C@H]3O)[C@H](N)C[C@@H]2N)[C@H](N)C[C@@H]1O [Compound 21, Tobramycin-ciprofloxacin] = 2
N=C(N)NC[C@H]1O[C@H](O[C@H]2[C@H](OCCCCCCCCCCCCN3CCN(c4cc5c(cc4F)c(=O)c(C(=O)O)cn5C4CC4)CC3)[C@@H](O[C@H]3O[C@H](CO)[C@@H](O)[C@H](NC(=N)N)[C@H]3O)[C@H](NC(=N)N)C[C@@H]2NC(=N)N)[C@H](NC(=N)N)C[C@@H]1O [Compound 27] = 8

Now examine the next entry.
Can you look up MIC of IPM in the presence of compound on P. aeruginosa for Cl.Cl.Cl.Cl.Cl.NC[C@H]1O[C@H](O[C@H]2[C@H](OCCCCCCCCCCCCN3CCN(c4cc5c(cc4F)c(=O)c(C(=O)O)cn5C4CC4)CC3)[C@@H](O)[C@H](N)C[C@@H]2N)[C@H](N)C[C@@H]1O [Compound 24] ?
2

----------
System: P. aeruginosa
measurement description: Checkerboard assay (antibiotic + adjuvant combination MIC)
Assay type: cell-based, Pseudomonas aeruginosa
assay setup: PA O750 (efflux-deficient); compound at 8 μM
Below, each entry is listed with its recorded MIC of CAZ in the presence of compound.
Numbers only; they are read as µg/mL.

The examples below pair each entry with its known result.
Cl.Cl.Cl.Cl.Cl.NC[C@H]1O[C@H](O[C@H]2[C@H](OCCCCCCCCCCCCN3CCN(c4cc5c(cc4F)c(=O)c(C(=O)O)cn5C4CC4)CC3)[C@@H](O)[C@H](N)C[C@@H]2N)[C@H](N)C[C@@H]1O [Compound 24] = 0.01
Cl.Cl.Cl.Cl.Cl.Cl.NC[C@H]1O[C@H](O[C@H]2[C@H](OCCCCCCCCCCCCN3CCN(c4cc5c(cc4F)c(=O)c(C(=O)O)cn5C4CC4)CC3)[C@@H](O[C@H]3O[C@H](CO)[C@@H](O)[C@H](N)[C@H]3O)[C@H](N)C[C@@H]2N)[C@H](N)C[C@@H]1O [Compound 21, Tobramycin-ciprofloxacin] = 0.03
NC[C@H]1O[C@H](O[C@H]2[C@H](OCCCCc3cn(CCCCO[C@@H]4[C@@H](O)[C@H](N)C[C@H](N)[C@H]4O[C@H]4O[C@H](CN)[C@@H](O)C[C@H]4N)nn3)[C@@H](O)[C@H](N)C[C@@H]2N)[C@H](N)C[C@@H]1O [Compound 26, Nebramine Homodimer] = 0.13

Now examine the next entry.
Look up MIC of CAZ in the presence of compound for this compound: N=C(N)NC[C@H]1O[C@H](O[C@H]2[C@H](OCCCCCCCCCCCCN3CCN(c4cc5c(cc4F)c(=O)c(C(=O)O)cn5C4CC4)CC3)[C@@H](O[C@H]3O[C@H](CO)[C@@H](O)[C@H](NC(=N)N)[C@H]3O)[C@H](NC(=N)N)C[C@@H]2NC(=N)N)[C@H](NC(=N)N)C[C@@H]1O [Compound 27]
0.25
